// data source = PubChem BioAssay (NCI)

# System: NCI-H460 lung
# ASSAY_PROCEDURE: NCI-60 one-dose screen, 48 h
# CONDITION_DETAILS: 10 µM unless noted
This is part of a sample that, as a whole, favours compounds with a hit. Of some 83,000 tested, about 20% had one in any assay. Activity calls are given as the source filed them. The calls were made as follows: active = growth percent below 10; inactive = the rest.
I would appreciate it if you answered using one of these outcomes: active, inactive

Before answering, review these 4 worked examples.
c1ccc(Cn2nc3c(c2-c2ccccc2)-c2oncc2CC3)cc1; inactive
O=C(N/N=C/c1cccnc1)c1ccccc1Nc1cccc(C(F)(F)F)c1; inactive
COc1cccc(NC(=O)c2cccc(-c3cc(=O)c4c(OC)c(OC)c(OC)cc4o3)c2)c1; inactive
COc1ccc(Nc2nc(N)nc3c2CCc2occc2-3)cc1; inactive

Could you check what this test reported for O=C1NC(=S)NC(=O)C1=Cc1cn(Cc2ccccn2)c2ccccc12 ?
inactive

Could you check what this test reported for C=C(C)[C@@H]1CC[C@]2(C(=O)NCCCN(CCC#N)CCC#N)CC[C@]3(C)[C@H](CC[C@@H]4[C@@]5(C)CCC(=O)C(C)(C)[C@@H]5CC[C@]43C)[C@@H]12 ?
inactive

Could you check what this test reported for Cc1ccc2[nH]c(=O)cc(-n3nncc3COc3ccc(C=O)cc3)c2c1 ?
inactive

Could you check what this test reported for COc1ccc(C(=O)c2cc3c(N)c(C(=O)Nc4ccc(Br)cc4)sc3nc2C)cc1 ?
inactive

Could you check what this test reported for Clc1nc(Cl)c2ncn(CC3(Cn4cnc5c(Cl)nc(Cl)nc54)COC3)c2n1 ?
active

Could you check what this test reported for c1ccc(-c2nn(-c3ccccc3)[n+](-c3ccccc3-c3ccccc3)n2)cc1 ?
active

Could you check what this test reported for Nc1cc(N)c2cccnc2c1O ?
inactive

Could you check what this test reported for O=C(/C=C\c1ccc(OCCCCCC[P+](c2ccccc2)(c2ccccc2)c2ccccc2)cc1)c1ccc2c(c1)OCCO2 ?
active

Could you check what this test reported for COc1cc(-c2nc3sccn3c2-c2ccnc(NCCNS(=O)(=O)c3ccc(F)cc3)n2)ccc1F ?
inactive

Could you check what this test reported for CC(O)/C=C/C=C/C(O)CC/C=C/C(=O)NCC(C)(C)O (stereo unspecified) ?
inactive

Could you check what this test reported for O=C(Nc1cccc(Cl)c1)Oc1c(Br)c(Br)c(Br)c(Br)c1Br ?
inactive

Could you check what this test reported for NS(=O)(=O)c1cccc(NC(=O)C(=O)C2C(=O)Nc3ccccc32)c1 (stereo unspecified) ?
inactive

Could you check what this test reported for CCn1cc(C2NC(=O)c3ccccc3N2)c2cccc(C)c21 (stereo unspecified) ?
active

Could you check what this test reported for COc1ccc(C(O)c2cc3c(N)c(C(=O)Nc4cccc(OC)c4)sc3nc2C)cc1 (stereo unspecified) ?
active

Could you check what this test reported for C=CCn1c(SCC(=O)Nc2ccc(C(=O)/C=C/c3cc(OC)c(OC)c(OC)c3)cc2)nnc1-c1cc(OC)c(OC)c(OC)c1 ?
inactive

Could you check what this test reported for CC1=CC2(C)/C=C(C)/C=C\CC(O)/C=C3/C=CC(=C4C(=O)OC2(CC1C)C4=O)OC3 (stereo unspecified) ?
inactive

Could you check what this test reported for Fc1cc(C2=NNC(c3ccc[nH]3)C2)ccc1-n1ccc(C(F)(F)F)n1 (stereo unspecified) ?
inactive

Could you check what this test reported for CCCCCN1C=C/C(=C\C(=O)N(C)c2ccc(Br)cc2)c2ccccc21 ?
inactive

Could you check what this test reported for COc1ccc(-n2cc(-c3cc(OC)c(OC)c(OC)c3)n(C(C)=O)c2=O)cc1 ?
inactive

Could you check what this test reported for C=C1C(=O)O[C@H]2[C@H]1CC/C(COC(=O)NCCc1c[nH]c3ccc(Cl)cc13)=C\CC[C@@]1(C)O[C@@H]21 ?
inactive

Could you check what this test reported for COc1cc(Nc2cc(O)c3c(=O)cc(-c4ccccc4)oc3c2)cc(OC)c1 ?
active

Could you check what this test reported for S=c1[nH]cccc1-c1nnc2n1Nc1nc3ccccc3cc1CS2 ?
inactive

====

# Tested on: NCI-H23 lung
# ASSAY_PROCEDURE: NCI-60 one-dose screen, 48 h (100 = growth as untreated, 0 = no growth, -100 = all killed)
# CONDITION_DETAILS: 10 µM unless noted
# Experimental: Growth inhibition of the NCI-H23 human Non-Small Cell Lung tumor cell line is measured as a screen for anti-cancer activity. Cells are grown in 96 well plates and exposed to the test compound for 48 hours. Compounds are tested at a single concentration, which is 10^-5 M for most compounds. The reported endpoint is percent growth (GI% or GIPRCNT), where numbers from 0 - 100% represent growth inhibition, and numbers from -100% - 0 represent cell death. […]
This is part of a sample that, as a whole, favours compounds with a hit. Of some 83,000 tested, about 20% had one in any assay.
Kindly state growth for each of the entries shown.
Give bare numbers, in %.

Study these solved cases before continuing.
CC(=O)OC1CCC2(C)C(CCC3C4CC=C(C(C)=O)C4(C)OC(=O)CC32)C1 (stereo not given); 34.7
O=C(Nc1sc2c(c1C(=O)O)CCCC2)c1cccc(C(F)(F)F)c1; 90.1
CCCCCCCCOc1ccc(/C=N/Nc2cc(C)nc3ccc(Cl)cc23)cc1; 65.2
CCN(CC)CCOC(COc1cc(C)cc(C)c1)COc1cc(C)cc(C)c1; 37.9

Let us examine a further case.
Name the reported growth value associated with the molecule COc1cc2nc(-c3ccc(C(F)(F)F)cc3)cc(OCCN3CCC(O)CC3)c2cc1OC
88.9

====

# System: LOX IMVI melanoma
# ASSAY_PROCEDURE: NCI-60 one-dose screen, 48 h (100 = growth as untreated, 0 = no growth, -100 = all killed)
# CONDITION_DETAILS: 10 µM unless noted
This is part of a sample that, as a whole, favours compounds with a hit. Of some 83,000 tested, about 20% had one in any assay.
QUANTITY_KIND: growth (%)
Answers are plain numbers, in %.

Cn1/c(=N/NC(N)=S)ccc2ccccc21; 102

Record growth for all entries; do not skip any.
1. C=CCn1c(SCC(=O)Nc2ccc(C(=O)/C=C/c3cc(OC)c(OC)c(OC)c3)cc2)nnc1-c1cc(-c2ccc(S(C)(=O)=O)cc2)nc2ccccc12
2. NC(=S)N/N=C(\c1ccc(Cl)cc1)C1CC1
3. O=C(c1ccccc1)N1N=C(c2ccc(-n3ccc(C(F)(F)F)n3)cc2)CC1c1ccc[nH]1 (stereo not given)
4. CCc1c(Nc2ccc(C)cc2)nc(N)[nH]c1=O

1: 67; 2: 94.2; 3: 80; 4: 105

====

Kindly state growth for each of the entries shown.
# Test system: SK-OV-3 ovarian
# ASSAY_PROCEDURE: NCI-60 one-dose screen, 48 h (100 = growth as untreated, 0 = no growth, -100 = all killed)
# CONDITION_DETAILS: 10 µM unless noted
This is part of a sample that, as a whole, favours compounds with a hit. Of some 83,000 tested, about 20% had one in any assay.
One number for each entry, in %.

Study these solved cases before continuing.
O=C1OC(=O)C2C1CC=CC2c1ccccc1 (stereo not given); 81.8
COc1ccc(C(=O)c2cc3c(N)c(C(=O)Nc4ccc(Cl)cc4)sc3nc2C)cc1; 73.5
c1cnc2nc3c(cc2c1)oc1ccccc13; 121

Record growth for all entries; do not skip any.
1. CCCNC(=O)Oc1ccc(/C(=C(\C)c2ccccc2)c2ccc(OCCN3CCCCC3)cc2)cc1
2. CC(=O)c1c[nH]c2ccc(-c3ccnc(Nc4ccc(NC(=O)c5cccc(F)c5)c(CN5CCOCC5)c4)n3)cc12
3. N/C(=N\N=C\c1cc2ccccc2[nH]1)N/N=C/c1cc2ccccc2[nH]1

[79.3, 17.8, 88.6]

Record growth for all entries; do not skip any.
1. Nc1nc(N)nc(NCc2ccccc2)n1
2. CN(Cc1ccccc1)c1nc(Cl)c(C2CC(c3ccc(Cl)cc3)=Cc3[nH][nH]c(=O)c32)s1 (stereo not given)
3. O=C(CCN1CCCC1)Nc1ccc2c(Nc3ccccc3)c3ccccc3nc2c1

1. 115
2. 101
3. 23.8

Name the reported growth value associated with the molecule COc1ccccc1OCC(=O)N1CCCCCC1
109

====

Kindly state growth for each of the entries shown.
# Tested on: UACC-62 melanoma
# ASSAY_PROCEDURE: NCI-60 one-dose screen, 48 h (100 = growth as untreated, 0 = no growth, -100 = all killed)
# CONDITION_DETAILS: 10 µM unless noted
# Protocol: Growth inhibition of the UACC-62 human tumor cell line is measured as a screen for anti-cancer activity. Cells are grown in 96 well plates and exposed to the test compound for 48 hours. Compounds are tested at a single concentration, which is 10^-5 M for most compounds. The reported endpoint is percent growth (GI% or GIPRCNT), where numbers from 0 - 100% represent growth inhibition, and numbers from -100% - 0 represent cell death. For example, a value of 40 represents 60% growth inhibition. […]
Compounds without any hit were thinned out: in the full panel of roughly 83,000, 20% have a hit.
One number for each entry, in %.

Study these solved cases before continuing.
C=C(C)[C@@H]1CC[C@]2(C(=O)NCCCN(CCC#N)CCC#N)CC[C@]3(C)[C@H](CC[C@@H]4[C@@]5(C)CCC(=O)C(C)(C)[C@@H]5CC[C@]43C)[C@@H]12; 99.6
COc1ccc2c(c1)OC1=C(C(=O)OC1)C2c1cc(OC)c(OC)c(OC)c1 (stereo unspecified); 42.3

Record growth for all entries; do not skip any.
1. COc1ccc(/C=C/C(=O)c2ccc(OC)c(OC)c2)cc1O
2. OC(c1ccccc1)c1ccccn1 (stereo unspecified)
3. BrC(Br)(Br)c1cnc2ccccc2n1
4. CCN1C(=O)N(CC)C2C1NN=c1s/c(=C3\C(=O)Nc4ccccc43)c(=O)n12 (stereo unspecified)

[87.1, 103, 61.4, 30.9]

Record growth for all entries; do not skip any.
1. COc1cc2nc(-c3ccc(C#N)cc3)[nH]c(=O)c2cc1OC
2. COc1ccc(-c2nc(SCC(C)C)nc(N/N=C(/C)c3ccc(OC)c(OC)c3)c2C#N)cc1
3. COc1cc(C2CC(c3cccc(Nc4ccncc4)c3)=NN2c2ccccc2)cc(OC)c1OC (stereo unspecified)
4. COc1cc(OC)c(/C=C/C(=O)c2ccc(Nc3ncnc4ccccc34)cc2)c(OC)c1
5. CCOc1ccc(/C=N/Nc2cc(C)nc3ccc(Cl)cc23)cc1
6. CNC(=O)c1c(NC(=O)c2ccc(C(C)C)cc2)sc2c(CN(C)C)c(O)ccc12
7. Cc1ccc(S(=O)(=O)Nc2ccc(Cl)cc2)cc1

87.8
81.2
96.2
-50
68.2
99.9
77.2
